system: HCT-116 colon; test: NCI-60 one-dose screen, 48 h; settings: 10 µM unless noted
About 83,000 compounds went through this panel and 20% of them were active in at least one assay; those are over-represented in the sample as a whole. The source made the active and inactive calls. The calls were made as follows: active = growth percent below 10; inactive = the rest.
Bench note: report the call from active, inactive

Field: example entries. Status: answers known.
COMPOUND: O=C(CSc1nc2sc3c(c2c(=O)n1Cc1ccccc1)CCCC3)N1CCN(c2ccccc2)CC1
GROUP: inactive
--
COMPOUND: C=C1C(=O)O[C@H]2[C@H]1CC/C(COC(=O)/C=C/c1c[nH]c3ccccc13)=C\CC[C@@]1(C)O[C@@H]21
GROUP: active
--
COMPOUND: COc1ccc(C(=O)c2cc3c(N)c(C(=O)Nc4ccc(Br)cc4)sc3nc2C)cc1
GROUP: inactive

[Q] How did this test come out for `COC(=O)Nc1ccc(NC(=O)OC)cc1` ?
[A] inactive

[Q] How about this compound: `Cc1c(C2=CCCCC2)c2ccccn2c1C(=O)c1cccc(S(=O)(=O)N2CCOCC2)c1`
[A] inactive

[Q] How about this compound: `CNC(=O)Nc1ccc(-c2nc(N3CCOCC3)nc3c2cnn3C2CCOCC2)cc1`
[A] inactive

[Q] How about this compound: `C[C@H]1[C@H](C)CC[C@]2(CO)CC[C@]3(C)C(=CC[C@@H]4[C@@]5(C)CCCNC(C)(C)[C@@H]5CC[C@]43C)[C@H]12`
[A] active

[Q] How about this compound: `CN1C2CCC1CN(c1cnc(C(=O)Nc3cc(F)cc4cccnc34)cn1)C2`
[A] inactive

[Q] How about this compound: `NC(=S)N/N=C/c1ccc(OC(=O)COc2cc(Cl)c(Cl)cc2Cl)cn1`
[A] inactive

[Q] How about this compound: COc1ccccc1C(C[N+](=O)[O-])c1c(-c2ccccc2)[nH]c2cc(C)ccc12 (centres undefined)
[A] inactive

[Q] How about this compound: `NC(=S)N/N=C(\c1ccc(Cl)cc1)C1CC1`
[A] active

[Q] How about this compound: `O=C(O)c1ccc[n+](CC(=O)N2CCN(c3cc4c(cc3F)c(=O)c(C(=O)O)cn4C3CC3)CC2)c1`
[A] inactive

[Q] How about this compound: `c1ccc(CCSc2ncnc3nc[nH]c23)cc1`
[A] inactive

[Q] How about this compound: `COc1ccc(-c2nc3sccn3c2/C=C/C(=O)c2cc(OC)c(OC)c(OC)c2)cc1`
[A] inactive

[Q] How about this compound: `O=C1Nc2cc(-c3ccncc3)ccc2/C1=C/c1ccc[nH]1`
[A] inactive

[Q] How about this compound: `C=C1C(=O)O[C@H]2[C@H]1CC/C(COC(=O)NCCc1c[nH]c3ccc(Cl)cc13)=C\CC[C@@]1(C)O[C@@H]21`
[A] active

[Q] How about this compound: `CC(=O)OCC(=O)[C@@]1(O)CC[C@H]2[C@@H]3CC(=C(Br)Br)C4=CC(=O)CC[C@]4(C)[C@H]3C(=O)C[C@@]21C`
[A] inactive

[Q] How about this compound: `O=C(Nc1ccc2cc3ccc(NC(=O)N4CCCCCC4)cc3nc2c1)N1CCCCCC1`
[A] active

[Q] How about this compound: `C=C1C(=O)O[C@H]2[C@H]1CC/C(CNC(=O)/C=C/c1ccccc1F)=C\CC[C@@]1(C)O[C@@H]21`
[A] active

This collection of values is drawn from PubChem BioAssay (NCI).
